Experiment: Cytotoxicity against mouse B16-4A5 cells assessed as viable cells at 30 uM after 72 hrs by WST-8 assay
Type: cell-based
Conditions: read-out: Activity
property: viability at 72 h, 30 µM

CC(C)[C@H]1CC[C@]2(C)C(=O)CCC(C=O)=C[C@@H]12
> 95.2%

What does the record list as viability at 72 h, 30 µM for "O=C[C@]1(/C=C\O[C@@H]2O[C@H](CO)[C@@H](O)[C@H](O)[C@H]2O)CC[C@H](COC(=O)C(=C/c2ccc(O)cc2)/C(=C\c2ccc(O)c(O)c2)C(=O)OC[C@H]2CC[C@](C=O)(/C=C\O[C@@H]3O[C@H](CO)[C@@H](O)[C@H](O)[C@H]3O)[C@@H](O)C2)C[C@@H]1O" ?
> 95.2%

What does the record list as viability at 72 h, 30 µM for "O=C[C@]1(CCO[C@@H]2O[C@H](CO)[C@@H](O)[C@H](O)[C@H]2O)CC[C@H](COC(=O)C(=C/c2ccc(O)cc2)/C(=C\c2ccc(O)c(O)c2)C(=O)OC[C@H]2CC[C@](C=O)(CCO[C@@H]3O[C@H](CO)[C@@H](O)[C@H](O)[C@H]3O)[C@@H](O)C2)C[C@@H]1O" ?
> 95.2%

What does the record list as viability at 72 h, 30 µM for "O=C[C@]1(/C=C\O[C@@H]2O[C@H](CO)[C@@H](O)[C@H](O)[C@H]2O)CC[C@H](COC(=O)C2=Cc3cc(O)c(O)cc3[C@@H](c3ccc(O)cc3)[C@@H]2C(=O)OC[C@H]2CC[C@](C=O)(/C=C\O[C@@H]3O[C@H](CO)[C@@H](O)[C@H](O)[C@H]3O)[C@@H](O)C2)C[C@@H]1O" ?
> 80.3%

What does the record list as viability at 72 h, 30 µM for "CO[C@H]1C[C@]2(CC[C@H](COC(=O)/C=C/c3ccc(O)c(O)c3)C[C@@H]2O)[C@H](OC)O1" ?
> 80.3%

What does the record list as viability at 72 h, 30 µM for "CC1(C)C[C@H](OC(=O)c2ccccc2)[C@@]23CC[C@@H](O)[C@@](C)(CC[C@H]12)C3" ?
7.9%

What does the record list as viability at 72 h, 30 µM for "CC(C)[C@H]1CC[C@]2(C)[C@@H](O)CCC(C=O)=C[C@@H]12" ?
> 80.3%
